test system: Fibroblast; experiment: Multiplex assay against human fibroblast; assay type: toxicity, cell-based; conditions: 24 h, 1 µM, compound concentration 1 uM, replicate 1
Label condition met when Population Mitotic Cells (%) is at or above 30%; anything below gets condition not met.

Examples with answers:
[
  {
    "structure smiles string": "C=CCn1c(=O)c2cnc(Nc3ccc(N4CCN(C)CC4)cc3)nc2n1-c1cccc(C(C)(C)O)n1",
    "classification": "condition not met"
  },
  {
    "structure smiles string": "O=C(Cc1ccc(-c2ccc(OCCN3CCOCC3)cc2)cn1)NCc1ccccc1",
    "classification": "condition met"
  },
  {
    "structure smiles string": "CCOc1cc2ncc(C#N)c(Nc3ccc(OCc4ccccn4)c(Cl)c3)c2cc1NC(=O)/C=C/CN(C)C",
    "classification": "condition met"
  },
  {
    "structure smiles string": "COc1cccc2cc(-c3nc([C@H]4CC[C@H](C(=O)O)CC4)n4ncnc(N)c34)[nH]c12",
    "classification": "condition met"
  },
  {
    "structure smiles string": "CCn1c(=O)c(-c2ccc(-c3cncs3)cc2Cl)cc2cnc(Nc3ccc(N4CCN(C)CC4)cc3)nc21",
    "classification": "condition met"
  },
  {
    "structure smiles string": "CN[C@@H]1C[C@H]2O[C@@](C)([C@@H]1OC)n1c3ccccc3c3c4c(c5c6ccccc6n2c5c31)C(=O)NC4",
    "classification": "condition not met"
  },
  {
    "structure smiles string": "Cl.O=C(c1ccc(Nc2nccc(-c3cc4ccccc4s3)n2)cc1)N1CCC(N2CCCC2)CC1",
    "classification": "condition not met"
  }
]

Item "S=C(NCCCc1c[nH]cn1)NCCCN(Cc1ccc(Cl)c(Cl)c1)c1ccc(Br)cn1" with Population Mitotic Cells (%) of 30% or above? condition met

* * *

Each entry below lists one item and its recorded Growth Rate value.
test system: HEK-293T; experiment: Incucyte cell viability with HEK293T; type: toxicity, cell-based; conditions: human, 18 h, 10 µM, compound concentration 10 uM, replicate number 1, timepoint 18 hours; note: filed as whole numbers so only -1 and 0 and 1 occur
Just the number, please, no unit attached.

Please review the entries below; each comes with its answer.
[
  {
    "compound": "Cn1nc(C(=O)NCc2ccc(C(=O)O)cc2)cc1-c1ccc2[nH]ccc2c1 [BI 4395]",
    "target entity": "HEK-293T",
    "Growth Rate": 0
  },
  {
    "compound": "Cc1oncc1C(=O)Nc1ccc(C(F)(F)F)cc1 [LEFLUNOMIDE]",
    "target entity": "HEK-293T",
    "Growth Rate": 1
  },
  {
    "compound": "Cn1cc(CCn2cnc(-c3cnn(C)c3)c2-c2ccc(C#N)cc2)cn1",
    "target entity": "HEK-293T",
    "Growth Rate": 1
  },
  {
    "compound": "COc1cc2c(CCNC(C)=O)c[nH]c2cc1Cl",
    "target entity": "HEK-293T",
    "Growth Rate": 1
  },
  {
    "compound": "Cl.O=C(c1ccc(Nc2nccc(-c3cc4ccccc4s3)n2)cc1)N1CCC(N2CCCC2)CC1",
    "target entity": "HEK-293T",
    "Growth Rate": 0
  }
]

Find the measured Growth Rate: item "O=C(Nc1cccnn1)N1CCC(=Cc2cccc(Oc3ccc(C(F)(F)F)cn3)c2)CC1" , target or system HEK-293T. 0

Try this compound too: "CCc1cccc(CC)c1NC(=O)c1nn(C)c2c1CCc1cnc(Nc3ccc(N4CCN(C)CC4)cc3OC)nc1-2" 0

Item: COc1cccc2cc(-c3nc([C@H]4CC[C@H](C(=O)O)CC4)n4ncnc(N)c34)[nH]c12 [OSI-027] 0

Try "CCCS(=O)(=O)c1nc(NC2CC2)cc(-c2ccc3c(ccn3C3CC(C)(C)NC(C)(C)C3)c2)n1" next. 0

Then what about the compound CCN1CCN(c2ccc(Nc3cc(N(C)C(=O)Nc4c(Cl)c(OC)cc(OC)c4Cl)ncn3)cc2)CC1 [INFIGRATINIB] ? 0

Entry to check: C=C1/C(=C\C=C2/CCC[C@]3(C)[C@@H]([C@H](C)/C=C/[C@H](C)C(C)C)CC[C@@H]23)C[C@@H](O)C[C@@H]1O [DOXERCALCIFEROL] 0

For NC(CCP(=O)(O)O)C(=O)O (racemic) then? 1

Same again, this time with CC(=O)N1CCC(c2ccc(C(=O)NC(=N)N)cc2C(F)(F)F)CC1 [BI 9627] 1

Can you handle CC1(C)CCC(C)(C)c2cc(NC(=O)c3ccc(C(=O)O)cc3)ccc21 [TAMIBAROTENE] next? 1
